Measured koff by item
Experimental target: T1, high affinity SIRP-α D1 variant CV1-3
T1 chain: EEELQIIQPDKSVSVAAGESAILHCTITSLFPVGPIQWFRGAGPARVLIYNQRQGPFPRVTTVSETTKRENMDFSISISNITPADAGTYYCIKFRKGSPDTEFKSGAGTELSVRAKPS
Procedure details: SPR, Langmuir fit

[
  {
    "Binder": "S76 (scFv, V domains shown, also called clone 76) VH: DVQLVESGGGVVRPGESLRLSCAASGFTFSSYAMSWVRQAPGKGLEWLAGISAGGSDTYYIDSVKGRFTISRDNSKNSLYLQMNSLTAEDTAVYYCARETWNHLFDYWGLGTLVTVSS VL: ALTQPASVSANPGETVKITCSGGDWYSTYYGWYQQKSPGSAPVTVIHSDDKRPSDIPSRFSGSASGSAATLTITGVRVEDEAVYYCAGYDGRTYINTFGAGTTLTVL",
    "koff / s⁻¹": 0.000155
  },
  {
    "Binder": "S201 (scFv, V domains shown) VH: DVQLVESGGAVVRPGETLRLSCTASGFTFSSYAMSWVRQAPGKGLEWVSGISASGSDTYYADSVKGRSTISRDNSKNTLYLRMSSLTAEDTAVYYCARETWNHLFDYWGLGTLVTVSS VL: ALTQPASVSANPGETVKITCSGGGTSSYYGWYQQKSPGSAPVTLIHSDDKRPSDIPSRFSGSASGSTATLTITGVQVEDEAVYYCGGYDYTTYVNTFGAGTTLTVL",
    "koff / s⁻¹": "8.32e-05"
  },
  {
    "Binder": "S23 (scFv, V domains shown, also called clone 23) VH: DVQLVESGGGVVRPGESLRLSCAASGFTFSSHAMSWVRQAPGKGLEWLAGISAGGSDTYYIDSVKGRFTISRDNSKSSLYLRMNSLTAEDTAVYYCARETWNHLFDYWGLGTLVTVSS VL: ALTQPASVSANPGETVKITCSGGDYYSTYYAWYQQKSPGSAPVTVIHSDDERPSDIPSRFSGSASGSAATLIITGVRVEDEAVYFCGGYDGRTYINTFGAGTTLTVL",
    "koff / s⁻¹": 0.000106
  }
]
